Tested on: influenza virus (strain A/Puerto Rico/8/34/H1N1 depicted PR8)
measurement.parameters: 0.3 µM; n=2
molecules and their reported relative infection
Give a plain numeric answer without units written out.

[
  {
    "molecule": "O=C(Nc1ccc([N+](=O)[O-])cc1Cl)c1cc(Cl)cc(Cl)c1O [TVB-1326]",
    "parameter.measured": "relative infection",
    "recorded.value": 0.94
  },
  {
    "molecule": "O=C(Nc1ccc([N+](=O)[O-])cc1Cl)c1cc(Cl)ccc1OCCOc1ccccc1 [TVB-1329]",
    "parameter.measured": "relative infection",
    "recorded.value": 0.98
  },
  {
    "molecule": "CS(=O)(=O)c1ccc(NC(=O)c2cc(Cl)ccc2O)c(Cl)c1 [TVB-1338]",
    "parameter.measured": "relative infection",
    "recorded.value": 0.81
  }
]

Attention now turns to another entry.
Task: State the recorded relative infection for this entry: O=C(Nc1ccc([N+](=O)[O-])cc1Cl)c1ccccc1O [TVB-1332]
Result: 1.06

###

Test system: influenza virus (strain A/Puerto Rico/8/34/H1N1 depicted PR8)
measurement.parameters: 0.1 µM; n=2
parameter.measured: relative infection
Give a plain numeric answer without units written out.

// known answers, use as guide
[
  {
    "mol": "CS(=O)(=O)c1ccc(NC(=O)c2cc(Cl)ccc2O)c(Cl)c1",
    "target.of.assay": "influenza virus (strain A/Puerto Rico/8/34/H1N1 depicted PR8)",
    "relative infection": 0.81
  },
  {
    "mol": "O=C(Nc1ccc([N+](=O)[O-])cc1Cl)c1cc(Cl)cc(Cl)c1O",
    "target.of.assay": "influenza virus (strain A/Puerto Rico/8/34/H1N1 depicted PR8)",
    "relative infection": 1.02
  }
]

Task: State the recorded relative infection for this entry: "O=C(Nc1ccc([N+](=O)[O-])cc1Cl)c1ccccc1O"
Result: 1.04

Task: Here is the next molecule: "O=C(Nc1ccc([N+](=O)[O-])cc1Cl)c1cc(Cl)ccc1OCCOc1ccccc1"
Result: 0.99
